Recorded values, source patent US6602900B2.

tested on: Dog eye (hyperemia); assay: Ocular surface hyperemia in dogs after topical dosing; type: in vivo; set-up: scale not given here; details: 0.1%
I would appreciate it if you labelled entries 1 (yes) when Hyp (hyperemia score) is 0.8 or higher, otherwise 0 (no).

* O=C(O)CCC/C=C\C[C@@H]1[C@@H](/C=C/[C@@H](O)CCc2cc3ccccc3o2)[C@H](O)C[C@@H]1O | 0 (no)
* O=C(O)CCC/C=C\C[C@@H]1[C@@H](/C=C/[C@@H](O)CCc2cc(Cl)sc2Cl)[C@H](O)C[C@@H]1O [drawing 28] | 0 (no)
* NC(=O)CCC/C=C\C[C@@H]1[C@@H](/C=C/[C@H](O)CCc2ccsc2)[C@H](O)C[C@@H]1O | 0 (no)
* NC(=O)CCC/C=C\C[C@@H]1[C@@H](/C=C/[C@@H](O)CCc2cc(Cl)sc2Cl)[C@H](O)C[C@@H]1O | 1 (yes)

Query string: Check this compound for Hyp (hyperemia score) at or above 0.8: O=C(O)CCC/C=C\C[C@@H]1[C@@H](/C=C/[C@@H](O)CCc2cccs2)[C@H](O)C[C@@H]1O
Result string: 0 (no)
